Data origin: patent US20110190200A1

target: glucagon receptor (human, UniProt P47871 26-477); experiment: cell-based or functional assay
Sequence (P47871 26-477): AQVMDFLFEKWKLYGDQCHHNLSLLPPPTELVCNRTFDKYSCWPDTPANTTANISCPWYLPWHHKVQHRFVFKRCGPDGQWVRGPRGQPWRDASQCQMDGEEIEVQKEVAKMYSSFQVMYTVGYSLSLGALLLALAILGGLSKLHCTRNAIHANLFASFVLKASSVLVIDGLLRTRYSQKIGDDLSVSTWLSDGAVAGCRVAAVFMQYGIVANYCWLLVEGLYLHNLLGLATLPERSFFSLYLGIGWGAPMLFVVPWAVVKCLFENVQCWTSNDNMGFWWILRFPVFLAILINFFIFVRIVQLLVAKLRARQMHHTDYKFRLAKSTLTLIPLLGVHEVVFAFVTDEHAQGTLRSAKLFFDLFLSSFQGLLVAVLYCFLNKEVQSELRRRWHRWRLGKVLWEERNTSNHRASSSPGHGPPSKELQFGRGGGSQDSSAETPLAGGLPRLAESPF
Entries and their measured EC50 at the glucagon receptor follow.

Example results:
{"columns": ["BINDER", "EC50 at the glucagon receptor"],
 "data": [
  ["HXQGTFTSDKSKYLDERRAKDFVQWLMNT (d-Ser at position 2; Lys at position 10 acylated with a C16 fatty acyl group; C-terminal amide) [Peptide dS2K10(C16)E16K20-Gluc Amide]", "0.076 nM"],
  ["HXQGTFTSDYSKYLDERRAKDFVQWLMNTK (d-Ser at position 2; Lys at position 30 acylated with a C16 fatty acyl group; C-terminal amide) [Peptide dS2E16K20K30-C16 Gluc Amide]", "4.89 nM"],
  ["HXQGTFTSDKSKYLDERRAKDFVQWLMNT (d-Ser at position 2; Lys at position 10 acylated with a C14 fatty acyl group; C-terminal amide) [Peptide dS2K10(C14)E16K20-Gluc Amide]", "0.155 nM"]
]}

Moving on to the next binder.
Exam item: What value of EC50 at the glucagon receptor has been reported for the following binder? HXQGTFTSDYSKYLDERRAKDFVQWLMNTK (d-Ser at position 2; Lys at position 30 acylated with a C14 fatty acyl group; C-terminal amide) [Peptide dS2E16K20K30-C14 Gluc Amide]
Marked response: 3.53 nM
